Molecular target: hGYS2 enzyme (recombinant hGYS2/GN1 protein) (Homo sapiens (Human), UniProt P54840)
Sequence (P54840 whole entry): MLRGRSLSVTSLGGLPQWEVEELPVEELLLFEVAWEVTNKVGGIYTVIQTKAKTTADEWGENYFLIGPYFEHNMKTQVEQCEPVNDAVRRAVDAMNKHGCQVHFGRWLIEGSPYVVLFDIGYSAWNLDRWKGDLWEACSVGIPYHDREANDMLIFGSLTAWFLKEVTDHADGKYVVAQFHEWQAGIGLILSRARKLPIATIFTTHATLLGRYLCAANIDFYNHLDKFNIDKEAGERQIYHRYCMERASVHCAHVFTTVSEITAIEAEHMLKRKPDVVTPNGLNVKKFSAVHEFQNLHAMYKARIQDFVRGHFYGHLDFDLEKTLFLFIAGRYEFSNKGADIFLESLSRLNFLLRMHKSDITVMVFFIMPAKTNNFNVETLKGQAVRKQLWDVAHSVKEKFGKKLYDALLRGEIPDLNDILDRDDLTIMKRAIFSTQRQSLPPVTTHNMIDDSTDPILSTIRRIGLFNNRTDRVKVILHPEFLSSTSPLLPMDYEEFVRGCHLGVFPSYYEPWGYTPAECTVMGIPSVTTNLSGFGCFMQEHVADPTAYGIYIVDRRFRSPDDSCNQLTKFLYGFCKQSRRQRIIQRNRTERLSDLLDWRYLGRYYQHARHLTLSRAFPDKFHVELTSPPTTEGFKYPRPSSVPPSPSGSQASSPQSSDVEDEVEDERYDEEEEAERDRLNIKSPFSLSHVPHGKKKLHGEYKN
Sequence (P46976 whole entry partner): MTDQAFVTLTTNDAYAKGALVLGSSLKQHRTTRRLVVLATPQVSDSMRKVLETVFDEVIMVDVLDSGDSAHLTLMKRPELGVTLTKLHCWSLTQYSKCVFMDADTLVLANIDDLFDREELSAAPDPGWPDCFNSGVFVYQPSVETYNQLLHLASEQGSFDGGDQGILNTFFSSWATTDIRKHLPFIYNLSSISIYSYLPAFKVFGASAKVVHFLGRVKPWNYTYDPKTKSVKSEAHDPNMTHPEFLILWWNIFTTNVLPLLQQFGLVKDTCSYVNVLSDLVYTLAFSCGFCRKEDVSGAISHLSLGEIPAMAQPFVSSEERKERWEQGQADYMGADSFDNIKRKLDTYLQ
Experiment: GYS2 coupled enzyme assay (PK/LDH)
Conditions: geometric mean of at least 2 assay runs on separate days, read-out: Avg_IC50
Source text: The GYS2 coupled enzyme assay is a kinetic biochemical assay that indirectly quantifies the rate of glycogen synthesis by coupling the conversion of GYS2 substrate UDP-glucose into UDP with downstream enzymatic reactions. UDP is released from UDP-glucose as glucose monomers are linked into the growing glycogen strand by GYS2. […] Oxidation of NADH to NAD+ can be measured continuously with a plate reader by quantifying the decrease in NADH absorbance at 340 nm over time. […]
pIC50: −log10 of the molar value.
measurement.type: pIC50

| molecule | measurement.type | reported.value |
| --- | --- | --- |
| Cc1cnc(CC(=O)N2C[C@H](F)C[C@H]2C(=O)N[C@@H](c2ccccc2)c2ccc(C(C)C)c(F)n2)o1 | pIC50 | < 4.00 |
| CC(=O)N1CCCC(C(=O)N2C[C@H](F)C[C@H]2C(=O)N[C@@H](c2ccccc2)c2ccc(C(C)C)cc2)C1C (stereo partly drawn) | pIC50 | < 4.00 |

Considering O=C(N[C@@H](c1ccccc1)c1ccc(C2CC2)c(F)n1)[C@@H]1C[C@@H](F)CN1C(=O)Cn1cc(C(F)(F)F)cn1 , its pIC50 with hGYS2 enzyme (recombinant hGYS2/GN1 protein) (Homo sapiens (Human), UniProt P54840) was recorded as < 4.00

###

molecular target: hGYS1 enzyme (recombinant hGYS1/GN1 protein) (Homo sapiens (Human), UniProt P13807); experiment: GYS1 coupled enzyme assay (PK/LDH); details: hGYS1/GN1 50 nM, UDP-Glucose 0.8 mM, G6P 1 mM; geometric mean of at least 2 runs
Sequence (P13807 whole entry, one chain of several): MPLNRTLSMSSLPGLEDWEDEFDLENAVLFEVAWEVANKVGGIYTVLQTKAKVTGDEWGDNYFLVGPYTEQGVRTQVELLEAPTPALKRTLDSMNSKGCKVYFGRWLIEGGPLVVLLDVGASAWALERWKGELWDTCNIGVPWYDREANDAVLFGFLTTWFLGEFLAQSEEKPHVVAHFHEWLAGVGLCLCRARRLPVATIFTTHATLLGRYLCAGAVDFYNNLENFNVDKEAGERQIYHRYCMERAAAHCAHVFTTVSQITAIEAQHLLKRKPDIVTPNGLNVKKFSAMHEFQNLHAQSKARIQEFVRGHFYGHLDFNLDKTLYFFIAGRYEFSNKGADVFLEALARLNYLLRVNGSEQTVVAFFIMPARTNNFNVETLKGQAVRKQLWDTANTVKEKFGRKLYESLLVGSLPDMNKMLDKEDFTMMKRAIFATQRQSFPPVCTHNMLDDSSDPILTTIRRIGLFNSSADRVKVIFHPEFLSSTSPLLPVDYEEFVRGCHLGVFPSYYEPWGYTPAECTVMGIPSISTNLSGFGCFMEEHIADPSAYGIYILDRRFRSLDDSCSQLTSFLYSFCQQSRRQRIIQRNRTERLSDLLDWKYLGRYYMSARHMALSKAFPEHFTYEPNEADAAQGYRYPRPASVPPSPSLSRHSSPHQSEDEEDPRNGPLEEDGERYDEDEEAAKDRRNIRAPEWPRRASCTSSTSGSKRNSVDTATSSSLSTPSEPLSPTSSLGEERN
# Lookup of reported IC50 keyed by entry
Answer with a number only, understood to be in nM.

A selection of reference data follows.
| compound | measurement.units | IC50 |
| --- | --- | --- |
| CC(=O)N1CCCC(C(=O)N2C[C@H](F)C[C@H]2C(=O)N[C@@H](c2ccccc2)c2ccc(C(C)C)cc2)CC1 (stereo partly shown) | nM | 91 |
| CN(C)c1cnn(CC(=O)N2C[C@H](F)C[C@H]2C(=O)N[C@H](c2ccccc2)c2ccc(C3CC3)c(F)n2)n1 | nM | 1480 |
| Cc1nnc(CCC(=O)N2C[C@H](F)C[C@H]2C(=O)N[C@@H](c2ccccc2)c2ccc(C(C)C)cc2)s1 | nM | 64 |
| O=C(N[C@@H](c1ccccc1)c1ccc(C2CC2)c(F)c1)[C@@H]1C[C@@H](F)CN1C(=O)CN1CCN(CC(F)(F)F)CC1=O | nM | 238 |
| Cc1noc(C)c1CCC(=O)N1C[C@H](F)C[C@H]1C(=O)N[C@@H](c1ccccc1)c1ccc(C(C)C)cc1 | nM | 162 |
| CC(C)c1ccc([C@@H](NC(=O)[C@@H]2C[C@@H](F)CN2C(=O)CCc2cnccn2)c2ccccc2)cc1 | nM | 85 |

Kindly note the recorded IC50 for CC(C)c1ccc([C@@H](NC(=O)[C@@H]2CCCN2C(=O)Cc2ncco2)c2ccccc2)cc1 , which is 247

Kindly note the recorded IC50 for CC(=O)N[C@@H](CC(N)=O)C(=O)N1C[C@H](F)C[C@H]1C(=O)N[C@@H](c1ccccc1)c1ccc(C(C)C)c(F)c1 , which is 47

Kindly note the recorded IC50 for Cc1coc(CC(=O)N2C[C@H](F)C[C@H]2C(=O)N[C@@H](c2ccccc2)c2ccc(C(C)C)c(F)n2)n1 , which is 10
